# Test target: UniProt:P08684
# Protocol: Inhibition of CYP3A4 in human liver microsomes using midazolam as substrate assessed as residual enzyme activity after 2 to 10 mins by LC-MS/MS analysis
# Format: ADME
# Test conditions: human, liver microsomes, probe midazolam
Experimental endpoint: kinact (s⁻¹)
Report the value in s⁻¹ with no unit label.

Look up kinact for this molecule: C[C@H](c1nc2ncccc2c(=O)n1-c1ccc(O)cc1)N(Cc1cccnc1)C(=O)Cc1ccc(OC(F)(F)F)cc1
0.00147

====

# Test target: Cytochrome P450 3A4 (Homo sapiens, UniProt P08684)
# Sequence (P08684 whole entry): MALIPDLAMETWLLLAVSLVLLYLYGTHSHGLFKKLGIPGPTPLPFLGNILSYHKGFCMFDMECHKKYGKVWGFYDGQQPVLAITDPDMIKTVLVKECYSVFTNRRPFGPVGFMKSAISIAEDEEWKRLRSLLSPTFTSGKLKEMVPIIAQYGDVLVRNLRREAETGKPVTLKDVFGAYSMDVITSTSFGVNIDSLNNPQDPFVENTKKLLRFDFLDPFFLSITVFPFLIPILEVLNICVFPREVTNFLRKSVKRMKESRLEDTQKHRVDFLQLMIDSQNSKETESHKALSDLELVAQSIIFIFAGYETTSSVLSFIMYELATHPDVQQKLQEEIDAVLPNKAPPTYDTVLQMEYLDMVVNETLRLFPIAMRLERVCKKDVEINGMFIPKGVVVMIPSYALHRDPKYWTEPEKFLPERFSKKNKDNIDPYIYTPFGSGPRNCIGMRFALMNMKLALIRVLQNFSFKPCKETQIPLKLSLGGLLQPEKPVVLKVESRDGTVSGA
# Protocol: Time dependent inhibition of CYP3A4 in human liver microsomes using midazolam as substrate preincubated for 30 mins followed by 10-fold dilution and substrate addition by LC-MS/MS analysis in presence of NADPH
# Type: ADME
Experimental endpoint: pIC50
// scale note: pIC50 = -log10(conc_M); give the bare number

Look up pIC50 for this compound: C[C@H](c1nc2ncccc2c(=O)n1-c1ccc(O)cc1)N(Cc1cccnc1)C(=O)Cc1ccc(OC(F)(F)F)cc1
7.57

====

# Test target: CYP3A4 (Homo sapiens)
# Protocol: Ratio of IC50 for CYP3A4 in human liver microsomes using midazolam as substrate preincubated for 30 mins followed by 10-fold dilution and substrate addition to IC50 for CYP3A4 in human liver microsomes using midazolam as substrate preincubated for 30 mins followed by 10-fold dilution and substrate addition in presence of NADPH
# Test conditions: probe midazolam, read-out: Ratio IC50
Experimental endpoint: IC50 shift at 30 min
Reply briefly: the number, and no unit.

Look up IC50 shift at 30 min for this compound: C[C@H](c1nc2ncccc2c(=O)n1-c1ccc(O)cc1)N(Cc1cccnc1)C(=O)Cc1ccc(OC(F)(F)F)cc1
24
